The measured values listed here are drawn from PubChem BioAssay AID1117319.

Target: Virion infectivity factor (Human immunodeficiency virus type 1 group M subtype B (isolate BH10)) + Virion infectivity factor (Human immunodeficiency virus type 1 group M subtype B (isolate BRU/LAI)) + Virion infectivity factor (Human immunodeficiency virus type 1 group M subtype B (isolate PCV12)) + Virion infectivity factor (Human immunodeficiency virus type 1 group M subtype B (isolate HXB2)) + DNA dC->dU-editing enzyme APOBEC-3G (Homo sapiens) (UniProt P69720+P69721+P69722+P69723+Q9HC16)
Assay: inhibitors of Vif binding to APOBEC3G peptide, primary screen, biochemical, TR-FRET, GST-Vif 1-94, biotin-A3G peptide, dose response retest (AID 1117319);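 note: Vif residues 1-94 fused to GST binding biotinylated APOBEC3G peptide 110-148; 0% = full assay without inhibitor and 100% = GST in place of GST-Vif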
Conditions: active compounds read high
Out of some 260,000 compounds screened, about 1,500 (0.58%) were called active. Not shown: some 5% with an inconclusive outcome. These entries were drawn from the full list. Measured potencies and affinities stand elsewhere.
Here, each record is paired with measured inhibition data.
experimental-readout: inhibition (%)

1. CCOC(=O)c1cc(-c2cccs2)[nH]n1: 3.68
2. CCc1nc(NCc2ccc3c(c2)OCO3)c2oc3ccccc3c2n1: 5.19
3. Cc1cc(C)nc(NS(=O)(=O)c2ccc(NC(=O)c3cc(=O)c4ccccc4o3)cc2)n1: -13.1
4. CC(=O)c1ccccc1NS(=O)(=O)c1ccccc1Cl: -6.08
5. Cc1cccn2c(=O)nc(SCC(=O)N3CCCCC3)nc12: -0.7
6. CCC(=O)N(CCC1(C(C)C)CCOC(C)(C)C1)Cc1ccco1 (stereo unspecified): 1.68
7. O=C1NC(c2cn(-c3ccccc3)nc2-c2cccs2)C(C(=O)c2cccnc2)C(O)(C(F)(F)F)N1 (stereo unspecified): 1.08
8. COc1ccc(C2NC(=O)NC(O)(C(F)(F)F)C2C(=O)c2ccccc2)cc1OC (stereo unspecified): -3.65
9. NNC(=O)c1nc(-c2cccc(-n3cccc3)c2)no1: 2.13
10. CSc1ccccc1NC(=O)c1cccnc1: -0.88
11. CCOC(=O)c1c(C=O)c(C)n(Cc2ccccc2)c1C: 4.84

---

Target: Virion infectivity factor (Human immunodeficiency virus type 1 group M subtype B (isolate BH10)) + Virion infectivity factor (Human immunodeficiency virus type 1 group M subtype B (isolate BRU/LAI)) + Virion infectivity factor (Human immunodeficiency virus type 1 group M subtype B (isolate PCV12)) + Virion infectivity factor (Human immunodeficiency virus type 1 group M subtype B (isolate HXB2)) + DNA dC->dU-editing enzyme APOBEC-3G (Homo sapiens) (UniProt P69720+P69721+P69722+P69723+Q9HC16)
Assay: inhibitors of Vif binding to APOBEC3G peptide, primary screen, biochemical, TR-FRET, GST-Vif 1-94, biotin-A3G peptide, dose response retest (AID 1117319);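 note: Vif residues 1-94 fused to GST binding biotinylated APOBEC3G peptide 110-148; 0% = full assay without inhibitor and 100% = GST in place of GST-Vif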
Conditions: active compounds read high
Screen size: about 260,000 compounds; about 1,500 (0.58%) were called active. Not shown: some 5% with an inconclusive outcome. Not all results are given here. Results with a measured potency or affinity are listed apart.
Here, each record is paired with measured inhibition data.
experimental-readout: inhibition (%)

1) CCOC(=O)c1c(/N=C/N(C)C)sc(C)c1C: -7.57
2) Cc1ccc(S(=O)(=O)NC2CCCCC2)cc1C(=O)N1CCC(C(N)=O)CC1: -4.11
3) CCOC(=O)C1=C(C)NC(C)=C(C(=O)OCC)C1c1ccco1: 22.4
4) O=C1NN(c2ccccc2)C(=O)/C1=C/c1ccc(Sc2ccc(Cl)cc2)o1: -5.35
5) O=c1cc(-c2ccc(O)c(O)c2)oc2ccc3ccccc3c12: 10.7
6) CCOC(=O)C1=c2s/c(=C\c3ccncc3)c(=O)n2C(N)=C(C(=O)OC)C1c1ccncc1 (centres undefined): -6.47
7) CC(=O)Nc1cccc(N(C)C)c1: 6.55
8) O=C(O)c1ccc2c(c1)-c1cc(C(=O)O)ccc1S2(=O)=O: -4.26
9) Cc1ccc(OCCSc2nc(NC(C)C)nc(NC(C)C)n2)cc1: -8.83
10) COc1ccc(NC(=S)NCCc2ccccc2)c(OC)c1: 18.1
11) COc1ccc(-n2c(SCC(C)=O)nc3sc(C)c(C)c3c2=O)cc1: -12.1
12) C=CCN1C(=O)S/C(=C/c2ccc(Sc3nc4ccccc4[nH]3)o2)C1=O: -2.89
13) Nc1nnc(SCC(=O)OCc2ccccc2)s1: 11.6
14) COc1ccccc1Nc1nnc(SCC(=O)NC2CCCC2)s1: -10.8
15) O=C(N/N=C/c1cn(Cc2ccccc2)c2ccccc12)c1cccnc1: -5.6
16) Oc1ccc2ccccc2c1Br: 0.97
17) CN1CCN(c2ccccc2NC(=O)c2ccc(Br)o2)CC1: 0.41
18) O=C(NCc1ccco1)c1csc(Nc2ccccc2Cl)n1: -7.13
19) COc1ccc(-c2cn(-c3ccc(C)cc3)c(=O)n2CC(=O)Nc2cccc(F)c2)cc1: 7.83
20) CCOC(=O)C1CCN(CC(O)COCc2ccc(Cl)cc2)CC1 (centres undefined): 8.82
21) C=C1CCN([C@H](C(=O)NCc2ccc(OC)cc2)C(C)C)S(=O)(=O)c2ccccc21: 2.28
22) COc1ccccc1/C=C/C(=O)OCC(=O)Nc1ccccc1Sc1ccccc1: -5.26
23) CC1CC(OCC(O)CN2CCOCC2)CC(C)(C)C1 (centres undefined): -2.99
24) N#C/C(=C/c1ccc(Sc2nc3ccccc3[nH]2)o1)c1cccc(F)c1: 25.4
25) CN1CCc2c(sc(NC(=O)c3ccc(S(=O)(=O)N4CCOCC4)cc3)c2C(N)=O)C1: 18.7
26) CCC(C)(C)n1nnnc1C(c1ccc2ncccc2c1)N1CCCCCC1 (centres undefined): 2.63
27) O=C(Nc1ccccc1N1CCOCC1)c1ccc(Br)o1: 7.09
28) COc1ccc(C(=O)N/C(=C/c2cccnc2)C(=O)N2CCCCCC2)cc1OC: 2.36
29) CCN1/C(=C/C(C)=C/c2sc3ccccc3[n+]2CC)Sc2ccccc21: -17.9
30) N#C/C(=C\c1ccc(Sc2nc3ccccc3[nH]2)o1)c1ccccc1: 4.57
31) O=C1NC(=S)S/C1=C\c1cccc([N+](=O)[O-])c1: 0.14
32) COc1ccc(OC)c(NC(=O)CNC(=O)Cn2c(C)cc3ccccc3c2=O)c1: 7.41
33) CC(C)N1CCc2c(sc(NC(=O)c3ccc(S(=O)(=O)N4CCOCC4)cc3)c2C(N)=O)C1: -2.18
34) Cc1cc(C)c(S(=O)(=O)NCC2CCC(C(=O)NCCCN3CCOCC3)CC2)c(C)c1 (centres undefined): 3.66
35) CCN(CC(=O)Nc1ccc(OC)cc1)C(=O)c1ccc2c(=O)n3c(nc2c1)CCC3: -5.14
36) C[C@]12C=CC(=O)C=C1CCC1C2CC[C@@]2(C)C1CCC21OCCO1 (some centres undefined): -4.95
37) COC(=O)C1CCN(S(=O)(=O)c2c[nH]c(=O)[nH]c2=O)CC1: -3.67
38) CC(=O)Nc1ccc(S(=O)(=O)NCCC(=O)N2CCC(Cc3ccccc3)CC2)cc1: -8.11
39) CS(=O)(=O)N(CC(=O)NCc1ccc2c(c1)OCO2)C1CCCCC1: -13.6
40) O=c1cc(-c2ccc(O)c(O)c2)oc2cc(O)cc(O)c12: 15.6
41) O=C(N/N=C/c1cn(Cc2ccccc2)c2ccccc12)c1ccncc1: 8.92
42) CCOC(=O)C1=c2s/c(=C\c3cccnc3)c(=O)n2C(N)=C(C(=O)OC)C1c1cccnc1 (centres undefined): -8.08
43) CCOc1ccccc1-c1cc(-c2ccccc2)nc2c1c(=O)n(C)c(=O)n2C: -7.81
44) CN1CC(=O)N(CC(=O)Nc2ccc(Cl)c(C(F)(F)F)c2)C1=O: -5.66
